Hey, just so you know, these numbers are from patent US20210009693A1.

Record form. Attribute: IC50 (read off the curve). Fill in for each entry.
experimentalSystem: T1, Human PD-L1/CD274 with C-Fc Tag (hPD-L1-Fc) (human, UniProt Q9NZQ7 19-238)
T1 construct: range 19-238; ACRO Biosystem PD1-H5258, made in HEK293; also called human PD-L1-Fc; not shown: Fc fragment of human IgG1 at C-terminus
T1 sequence (Q9NZQ7 19-238 limits assumed): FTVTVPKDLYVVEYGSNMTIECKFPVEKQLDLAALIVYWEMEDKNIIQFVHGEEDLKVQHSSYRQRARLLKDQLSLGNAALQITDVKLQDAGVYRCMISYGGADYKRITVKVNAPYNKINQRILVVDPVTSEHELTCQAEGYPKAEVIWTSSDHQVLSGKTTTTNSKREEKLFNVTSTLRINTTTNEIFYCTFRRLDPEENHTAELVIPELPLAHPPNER
protocolSummary: blocking ELISA on coated hPD-L1-Fc; blocked ligand: biotinylated hPD-1-N297A

Value of measured IC50 (read off the curve) for the entry 4B6-H3L3 (antibody, V domains shown, Humanized; also called humanized 4B6 H3L3) VH: QVQLVQSGAEVVKPGASVKISCKASGYVFTDYYMNWVKQAPGQGLEWIGDINPNNGGTSYNQKFQGRATVTVDKSTRTAYMELSRLRSDDTAVYYCVKWGDGPFAYWGQGTLVTVSS VL: DIQMTQSQSSLSASVGDRVTITCQASQNVGAAVAWYQQKPGKAPKLLIYSASNRYTGVPSRFSGSGSGTDFTLTISSMQPEDIATYFCQQYSNYPTFGSGTKLGIK : ~0.06 µg/mL

Value of measured IC50 (read off the curve) for the entry 23A11-H3L3 (antibody, V domains shown, Humanized; also called humanized 23A11 H3L3) VH: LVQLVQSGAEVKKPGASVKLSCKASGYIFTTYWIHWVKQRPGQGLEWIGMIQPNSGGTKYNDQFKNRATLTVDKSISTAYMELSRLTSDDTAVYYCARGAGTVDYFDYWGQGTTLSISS VL: DIVLTQSPASLAVSVGQRATITCRASESVDIYGNSFMHWYQQKPGQSPKLLIYRASNLESGIPARFSGSGSRTDFTLTINPVEANDTATYYCHQSNDDPYTFGGGTKLETK : ~0.07 µg/mL

Value of measured IC50 (read off the curve) for the entry 23F11-H4L6 (antibody, V domains shown, produced in 293 cells; light chain constant region not described; also called humanized 23F11 H4L6) VH: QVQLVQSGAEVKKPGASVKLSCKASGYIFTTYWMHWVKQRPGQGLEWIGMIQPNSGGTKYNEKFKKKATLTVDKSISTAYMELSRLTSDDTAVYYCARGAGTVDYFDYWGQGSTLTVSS VL: DIVLTQSPASLAVSVGQRATITCRASESVDIYGNSFMHWYQQKPGQPPKLLIYRASNLESGIPARFSGSGSRTDFTLTINPVEANDTATYYCHQSTEDPYTFGGGTKLEIK : ~0.04 µg/mL

Value of measured IC50 (read off the curve) for the entry 23F11-H6L4 (antibody, V domains shown, Humanized; also called humanized 23F11 H6L4) VH: QVQLVQSGAEVKKPGASVKVSCKASGYIFTTYWMHWVRQAPGQGLEWIGMIQPNSGGTKYNEKFKKKATLTVDTSISTAYMELSRLRSDDTAVYYCARGAGTVDYFDYWGQGSTLTVSS VL: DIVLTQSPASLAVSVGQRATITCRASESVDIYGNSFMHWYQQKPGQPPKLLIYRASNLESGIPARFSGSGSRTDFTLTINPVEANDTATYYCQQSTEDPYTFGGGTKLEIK : ~0.04 µg/mL

Value of measured IC50 (read off the curve) for the entry 4B6-H4L4 (antibody, V domains shown, produced in 293 cells; light chain constant region not described; also called humanized 4B6 H4L4) VH: QVQLVQSGAEVKKPGASVKVSCKASGYVFTDYYMNWVRQAPGQGLEWIGDINPNNGGTSYNQKFQGRVTVTVDTSIRTAYMELSRLRSDDTAVYYCVKWGDGPFAYWGQGTLVTVSS VL: DIQMTQSPSSLSASVGDRVTITCQASQNVGAAVAWYQQKPGKAPKLLIYSASNLYTGVPSRFSGSGSGTDFTLTISSLQPEDIATYFCQQYSNYPTFGSGTKLGIK : ~0.04 µg/mL

Value of measured IC50 (read off the curve) for the entry 23A11-H5L5 (antibody, V domains shown, produced in 293 cells; also called humanized 23A11 H5L5) VH: LVQLVQSGAEVKKPGASVKVSCKASGYIFTTYWIHWVRQAPGQGLEWIGMIQPNSGGTKYNDQFKNRVTLTVDTSISTAYMELSRLRSDDTAVYYCARGAGTVDYFDYWGQGTTLSISS VL: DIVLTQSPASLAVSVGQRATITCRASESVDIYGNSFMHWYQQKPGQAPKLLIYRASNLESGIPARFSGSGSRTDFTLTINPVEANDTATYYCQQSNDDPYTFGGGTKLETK : ~0.1 µg/mL

Value of measured IC50 (read off the curve) for the entry 23F11-C (antibody, V domains shown, Mouse variable regions fused to a human IgG1 constant region; also called 23F11-chimeric; chimeric antibody 23F11) VH: QVQLQQPGAELVKPGASVKLSCKASGYSFTTYWMHWVKQRPGQGLEWIGMIQPNSGGTKYNEKFKKKATLTVDKSSTTASMELSSLTSEDSAVYYCARGAGTVDYFDYWGQGSTLTVSS VL: DIVLTHSPVSLAVSLGQRATISCRASESVDIYGNSFMHWYQQKPGQPPKLLIYRASNLESGIPARFSGSGSRTDFTLTINPVEADDVATYYCQQSTEDPYTFGGGTKLEIK : ~0.05 µg/mL
